Assay: AUC in human at 5 to 30 mg, po QD after 24 hrs
Assay type: ADME, organism-based
Conditions: in vivo
value kind: AUC at 24 h (µM·h)
Numbers only, in µM·h.

Req: Reported AUC at 24 h, compound CCN(CC)CC#CCOC(=O)C(O)(c1ccccc1)C1CCCCC1 (stereo unspecified) : ____
Resp: 0.039

###

Experiment: Drug concentration at steady state in alopecia patient at 1 mg, po QD after 24 hrs
Format: ADME, organism-based
Conditions: human, in vivo, read-out: Css
value kind: concentration at 24 h (nM)
Answers are plain numbers, in nM.

Req: Query (molecule): CC(C)(C)NC(=O)[C@H]1CC[C@H]2[C@@H]3CC[C@H]4NC(=O)C=C[C@]4(C)[C@H]3CC[C@]12C [FINASTERIDE] ; field requested: concentration at 24 h
Resp: 41

###

Assay: AUC in human at 1 to 1.5 g, po BID after 12 hrs
Assay type: ADME, organism-based
Settings: in vivo
value kind: AUC at 12 h (ng·h/mL)
Give bare numbers, in ng·h/mL.

Req: Look at this compound and give its reported AUC at 12 h. COc1c(C)c2c(c(O)c1C/C=C(\C)CCC(=O)OCCN1CCOCC1)C(=O)OC2 [MYCOPHENOLATE MOFETIL]
Resp: 45700

###

Molecular target: ATP-binding cassette sub-family C member 2 (Homo sapiens, UniProt Q92887)
Sequence (Q92887 whole entry): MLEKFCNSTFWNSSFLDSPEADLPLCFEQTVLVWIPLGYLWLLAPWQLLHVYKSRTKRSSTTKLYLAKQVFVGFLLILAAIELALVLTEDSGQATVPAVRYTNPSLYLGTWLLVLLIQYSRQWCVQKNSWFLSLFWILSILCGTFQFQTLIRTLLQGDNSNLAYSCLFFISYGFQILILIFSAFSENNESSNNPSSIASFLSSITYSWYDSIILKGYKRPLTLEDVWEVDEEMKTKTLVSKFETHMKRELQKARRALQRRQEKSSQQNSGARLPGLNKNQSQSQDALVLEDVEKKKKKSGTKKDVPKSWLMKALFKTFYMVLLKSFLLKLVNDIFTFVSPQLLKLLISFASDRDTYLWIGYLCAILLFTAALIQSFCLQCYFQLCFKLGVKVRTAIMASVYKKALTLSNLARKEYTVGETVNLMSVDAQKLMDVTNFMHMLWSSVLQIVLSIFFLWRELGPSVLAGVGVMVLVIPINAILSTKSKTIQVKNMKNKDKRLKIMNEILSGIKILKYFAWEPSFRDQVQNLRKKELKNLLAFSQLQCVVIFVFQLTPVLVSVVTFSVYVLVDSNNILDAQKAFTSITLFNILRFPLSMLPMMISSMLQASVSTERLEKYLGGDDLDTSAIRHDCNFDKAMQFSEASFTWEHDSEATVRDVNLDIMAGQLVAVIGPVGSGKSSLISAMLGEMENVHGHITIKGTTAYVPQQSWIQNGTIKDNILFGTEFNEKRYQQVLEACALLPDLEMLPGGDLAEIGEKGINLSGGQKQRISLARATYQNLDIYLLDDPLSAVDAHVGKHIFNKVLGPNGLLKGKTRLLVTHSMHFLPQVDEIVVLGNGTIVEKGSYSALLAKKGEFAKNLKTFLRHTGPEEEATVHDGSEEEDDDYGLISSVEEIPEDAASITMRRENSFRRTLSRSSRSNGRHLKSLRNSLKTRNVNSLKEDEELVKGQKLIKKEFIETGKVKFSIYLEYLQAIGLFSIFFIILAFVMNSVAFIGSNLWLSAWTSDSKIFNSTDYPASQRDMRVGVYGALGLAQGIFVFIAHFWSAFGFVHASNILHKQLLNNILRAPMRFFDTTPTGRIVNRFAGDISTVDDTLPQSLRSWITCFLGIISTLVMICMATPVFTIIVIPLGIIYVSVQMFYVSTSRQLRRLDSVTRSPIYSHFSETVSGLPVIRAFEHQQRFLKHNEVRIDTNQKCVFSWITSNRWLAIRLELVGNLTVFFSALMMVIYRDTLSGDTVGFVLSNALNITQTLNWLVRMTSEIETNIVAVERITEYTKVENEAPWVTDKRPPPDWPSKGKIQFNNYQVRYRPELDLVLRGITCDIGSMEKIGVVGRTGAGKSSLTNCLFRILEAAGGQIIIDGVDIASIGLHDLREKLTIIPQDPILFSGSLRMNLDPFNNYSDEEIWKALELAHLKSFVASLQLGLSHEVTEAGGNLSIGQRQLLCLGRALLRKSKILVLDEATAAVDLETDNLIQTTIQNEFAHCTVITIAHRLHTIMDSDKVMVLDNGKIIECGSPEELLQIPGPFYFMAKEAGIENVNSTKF
Assay: Inhibition of human MRP2 overexpressed in Sf9 cell membrane vesicles assessed as uptake of [3H]-estradiol-17beta-D-glucuronide in presence of ATP and GSH measured after 20 mins by membrane vesicle transport assay
pIC50: −log10 of the molar value. Structures can show the parent of a compound that is named as a salt.
Consider the following compounds; for each one, report its pIC50.

A selection of reference data follows.
compound	pIC50
CC(=O)O.C[C@@H](O)[C@@H]1NC(=O)[C@H](CCCCN)NC(=O)[C@@H](Cc2c[nH]c3ccccc23)NC(=O)[C@H](Cc2ccccc2)NC(=O)[C@@H](NC(=O)[C@H](N)Cc2ccccc2)CSSC[C@@H](C(=O)N[C@H](CO)[C@@H](C)O)NC1=O [OCTREOTIDE ACETATE]	< 3.88
CS(=O)(=O)CCNCc1ccc(-c2ccc3ncnc(Nc4ccc(OCc5cccc(F)c5)c(Cl)c4)c3c2)o1.Cc1ccc(S(=O)(=O)O)cc1	< 3.88
Cc1ccccc1C(=O)Nc1ccc(C(=O)N2CCCC(O)c3cc(Cl)ccc32)c(C)c1 (stereo not given)	< 3.88
CC(=O)NC[C@H]1CN(c2ccc(N3CCOCC3)c(F)c2)C(=O)O1	< 3.88
CNCC[C@H](Oc1cccc2ccccc12)c1cccs1 [DULOXETINE HYDROCHLORIDE]	< 3.88

Below are 2 compounds. Give each one its pIC50.
1. C(=C\c1ccccc1)/CN1CCN(C(c2ccccc2)c2ccccc2)CC1
2. COc1cc(C(=O)NS(=O)(=O)c2ccccc2C)ccc1Cc1cn(C)c2ccc(NC(=O)OC3CCCC3)cc12

Resp:
< 3.88
4.23

Record pIC50 for all entries; do not skip any.
1. CC1(C)[C@H](C(=O)O)N2C(=O)C[C@H]2S1(=O)=O
2. CC(C)NCC(O)COc1ccc(COCCOC(C)C)cc1 (stereo not given) [BISOPROLOL FUMARATE]
3. C=C(C)[C@H]1Cc2c(ccc3c2O[C@@H]2COc4cc(OC)c(OC)cc4[C@@H]2C3=O)O1
4. Cc1onc(-c2c(Cl)cccc2Cl)c1C(=O)N[C@@H]1C(=O)N2[C@@H]1SC(C)(C)[C@@H]2C(=O)O

Resp:
1: < 3.88; 2: < 3.88; 3: < 3.88; 4: < 3.88

Please give pIC50, item by item, for the list that follows.
1. NC[C@H]1O[C@H](O[C@H]2[C@H](O)[C@@H](O[C@H]3O[C@H](CO)[C@@H](O)[C@H](N)[C@H]3O)[C@H](N)C[C@@H]2N)[C@H](O)[C@@H](O)[C@@H]1O
2. Cc1oncc1C(=O)Nc1ccc(C(F)(F)F)cc1 [LEFLUNOMIDE]
3. CC(O)(P(=O)(O)O)P(=O)(O)O [ETIDRONATE DISODIUM]
4. O=P(O)(O)C(O)(Cn1ccnc1)P(=O)(O)O

Resp:
1. < 3.88
2. < 3.88
3. < 3.88
4. < 3.88
